From: paper PMC9855432

tested on: human CRC HT-29 cells; experiment: MTT cell viability / IC50 on HT-29 cells; assay type: cell-based; details: MTT assay, 48 h, 1 to 50 µM, mean ± SEM of at least three experiments
pIC50: −log10 of the molar value.
recorded.endpoint: pIC50

Known pIC50 results, listed for orientation:
compound="COc1ccc(C(=Cc2ccc(F)cc2)c2ccccn2)cc1 [Compound 15b]" assayed_system="human CRC HT-29 cells" result="< 4.30"
compound="COc1ccc(C(=Cc2ccccc2)c2ccccn2)cc1 [Compound 6b]" assayed_system="human CRC HT-29 cells" result="< 4.30"

--- query ---
Ask: Recorded pIC50 for COc1ccc(C(=Cc2ccc(C(F)(F)F)cc2)c2ccccn2)cc1 [Compound 12b] with human CRC HT-29 cells, please?
Result: < 4.30

* * *

test system: human CRC HT-29 cells; test: MTT cell viability / IC50 on HT-29 cells; format: cell-based; conditions: Homo sapiens, HT-29, 48 h, MTT assay, 1 to 50 µM, mean ± SEM of at least three experiments
pIC50: −log10 of the molar value.
recorded.endpoint: pIC50

These solved cases illustrate the format of a correct answer.
molecule="COc1ccc(C(Oc2ccc(Cl)cc2)c2ccccn2)cc1 (stereo not drawn)" assayed_system="human CRC HT-29 cells" recorded_endpoint=pIC50 result="< 4.30"
molecule="COc1ccc(C(Oc2ccc(C(C)=O)cc2)c2ccccn2)cc1 (stereo not drawn)" assayed_system="human CRC HT-29 cells" recorded_endpoint=pIC50 result="< 4.30"

Here is the next item to consider.
Ask: Fill in: pIC50 of COc1ccc(OC(c2ccc(OC)cc2)c2ccccn2)cc1 (stereo not drawn) is ___
Result: < 4.30

* * *

system: human CRC HT-29 cells; experiment: MTT cell viability / IC50 on HT-29 cells; type: cell-based; conditions: MTT assay, 48 h, 1 to 50 µM, mean ± SEM of at least three experiments
This section presents compounds with their documented IC50 values.

compound=COc1ccc(C(=Cc2ccc(C(C)C)cc2)c2ccccn2)cc1 result="> 50 µM"
compound="COc1ccc(C(=Cc2ccc(Br)cc2)c2ccccn2)cc1 [Compound 13b]" result="> 50 µM"

Could you now look at the following compound, please?
Ask: Please give the measured IC50 for this compound: COc1ccc(C(=Cc2ccc(Cl)cc2)c2ccccn2)cc1 [Compound 14b]
Result: > 50 µM

* * *

IC50 listing for selected compounds.
Test system: human CRC HT-29 cells
Assay: MTT cell viability / IC50 on HT-29 cells
Type: cell-based
Conditions: Homo sapiens, HT-29, 48 h, MTT assay, 1 to 50 µM, mean ± SEM of at least three experiments
Procedure: Cells were grown in DMEM medium for HT-29 cells and RPMI 1640 medium for HCT116 cells, supplemented with 10% FBS, 1% L-glutamine and 100 U/mL penicillin and 100 μg/mL streptomycin. […] All compounds were tested on the metabolic activity of the cells using the MTT colorimetric assay. […] The optical density was detected with a microplate reader (Thermoscientific, Multiskan FC) at 550 nm and cell viability was expressed as a percentage of each treatment condition compared to control cells. […]

Solved entries (count: 4):
compound="COc1ccc(C(Oc2ccc([N+](=O)[O-])cc2)c2ccccn2)cc1 (centres unmarked) [Compound 25]" result="> 50 µM"
compound="COc1ccc(C(Oc2ccc(N(C)C)cc2)c2ccccn2)cc1 (centres unmarked) [Compound 26]" result="> 50 µM"
compound="COc1ccc(C(Oc2ccc(C(F)(F)F)cc2)c2ccccn2)cc1 (centres unmarked) [Compound 24]" result="> 50 µM"
compound="COc1ccc(C(=Cc2ccc(C)cc2)c2ccccn2)cc1 [Compound 7a]" result="35 µM"

Ask: Using the record for COc1ccc(C(=Cc2ccc(O)cc2)c2ccccn2)cc1 [Compound 11b] , report its IC50.
Result: > 50 µM
